target: Met (Homo sapiens (Human)); assay: Human Met kinase assay (33P radiometric, KinaseProfiler); type: biochemical; settings: 10 μM ATP, read-out: c-Met IC50
measure-name: IC50

Q: Checklist item: IC50 tested on Met (Homo sapiens (Human)), entry COc1cc2ncnc(Oc3ccc(NC(=O)C4(C(=O)Nc5ccc(F)cc5)CC4)cc3)c2cc1C(=O)NC1COC1 [Compound 115] , value?
A: 0.01 to 0.1 µM

----------
Each item that follows carries a reported pIC50.
biological target: Mer (Homo sapiens (Human)); assay: Human Mer kinase assay (33P radiometric, KinaseProfiler); type: biochemical; settings: 10 μM ATP
Sequence (Q12866 557-882): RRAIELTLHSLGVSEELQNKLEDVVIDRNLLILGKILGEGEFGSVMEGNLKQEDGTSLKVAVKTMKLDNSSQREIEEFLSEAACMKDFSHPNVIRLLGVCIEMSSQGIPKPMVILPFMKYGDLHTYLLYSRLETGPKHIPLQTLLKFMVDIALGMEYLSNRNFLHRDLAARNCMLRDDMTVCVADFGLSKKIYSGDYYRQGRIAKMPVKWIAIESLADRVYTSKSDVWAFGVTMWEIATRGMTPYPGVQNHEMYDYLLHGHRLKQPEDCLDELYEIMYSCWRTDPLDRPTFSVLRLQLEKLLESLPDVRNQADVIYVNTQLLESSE
pIC50: −log10 of the molar value.

Q: pIC50 lookup needed for COc1nc2c(Oc3ccc(NC(=O)C4(C(=O)Nc5ccc(F)cc5)CC4)cc3)ncnc2cc1OCCCN1CCOCC1 [Compound 65] , thanks.
A: ≥ 8.00

Q: pIC50 lookup needed for O=C(Nc1ccc(F)cc1)C1(C(=O)Nc2ccc(Oc3ncnc4ccncc34)cc2)CC1 [Compound 95] , thanks.
A: 6.00 to 7.00

----------
Each item that follows carries a reported IC50.
target: KDR (Homo sapiens (Human)); assay: KDR autophosphorylation ELISA in HUVEC cells; conditions: cellular, VEGF165-stimulated, phospho-KDR ELISA
Sequence (P35968 20-1356): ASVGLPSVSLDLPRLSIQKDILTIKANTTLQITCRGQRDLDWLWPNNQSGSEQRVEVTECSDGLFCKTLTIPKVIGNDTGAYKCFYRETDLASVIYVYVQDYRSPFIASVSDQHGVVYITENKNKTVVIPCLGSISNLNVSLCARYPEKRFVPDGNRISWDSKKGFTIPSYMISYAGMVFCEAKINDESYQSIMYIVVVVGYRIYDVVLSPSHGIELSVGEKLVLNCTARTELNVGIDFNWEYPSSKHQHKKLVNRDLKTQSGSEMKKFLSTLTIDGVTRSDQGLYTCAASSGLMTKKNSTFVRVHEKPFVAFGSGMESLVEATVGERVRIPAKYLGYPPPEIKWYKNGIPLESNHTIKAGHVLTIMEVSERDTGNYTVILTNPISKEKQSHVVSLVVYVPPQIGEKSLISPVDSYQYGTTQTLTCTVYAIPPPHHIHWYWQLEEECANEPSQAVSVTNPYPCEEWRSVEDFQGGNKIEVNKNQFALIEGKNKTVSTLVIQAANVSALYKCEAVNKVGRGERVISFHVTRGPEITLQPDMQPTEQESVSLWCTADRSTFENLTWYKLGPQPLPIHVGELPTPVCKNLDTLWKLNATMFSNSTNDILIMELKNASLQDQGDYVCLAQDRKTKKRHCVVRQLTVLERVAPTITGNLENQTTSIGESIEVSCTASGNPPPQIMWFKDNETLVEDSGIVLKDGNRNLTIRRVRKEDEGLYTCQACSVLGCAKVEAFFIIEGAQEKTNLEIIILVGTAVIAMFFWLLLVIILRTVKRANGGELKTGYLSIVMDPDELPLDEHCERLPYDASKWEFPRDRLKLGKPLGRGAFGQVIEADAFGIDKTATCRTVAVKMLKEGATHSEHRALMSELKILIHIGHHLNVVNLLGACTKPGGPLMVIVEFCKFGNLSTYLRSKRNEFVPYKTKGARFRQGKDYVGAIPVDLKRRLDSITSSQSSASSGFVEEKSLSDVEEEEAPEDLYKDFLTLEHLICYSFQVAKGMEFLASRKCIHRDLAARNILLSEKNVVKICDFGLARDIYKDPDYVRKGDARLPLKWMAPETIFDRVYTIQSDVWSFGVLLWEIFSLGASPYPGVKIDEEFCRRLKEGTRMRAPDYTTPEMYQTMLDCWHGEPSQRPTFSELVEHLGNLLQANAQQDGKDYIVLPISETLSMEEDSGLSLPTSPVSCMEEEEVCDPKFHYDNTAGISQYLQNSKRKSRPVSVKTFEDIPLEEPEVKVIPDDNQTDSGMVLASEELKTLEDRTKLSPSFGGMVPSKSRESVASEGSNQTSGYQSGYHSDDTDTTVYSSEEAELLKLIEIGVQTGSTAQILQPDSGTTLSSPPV

smiles-repr	result
COc1cc2ncnc(Oc3ccc(NC(=O)C4(C(=O)Nc5ccc(F)cc5)CC4)cc3)c2nc1OC	10 to 100 nM
COCCOc1cc2ncnc(Oc3ccc(NC(=O)C4(C(=O)Nc5ccc(F)cc5)CC4)cc3)c2nc1OC	≤ 10 nM
COc1cc2ncnc(Oc3ccc(NC(=O)C4(C(=O)Nc5ccc(F)cc5)CC4)cc3)c2cc1C(=O)NC1CC1	10 to 100 nM
COc1cc2ncnc(Oc3ccc(NC(=O)C4(C(=O)Nc5ccc(F)cc5)CC4)c(F)c3)c2nc1OC	10 to 100 nM

Q: IC50 lookup needed for COc1cc2ncnc(Oc3ccc(NC(=O)C4(C(=O)Nc5ccc(F)cc5)CC4)cc3)c2cc1C(=O)NC[C@@H]1CCCN1C(=O)OC(C)(C)C , thanks.
A: 100 to 300 nM

----------
Each item that follows carries a reported IC50.
molecular target: Human Axl (Homo sapiens (Human), UniProt P30530, Q764R); experiment: Human AXL kinase assay (33P radiometric, KinaseProfiler); settings: 10 μM ATP
Sequence (P30530 473-894 Q764R): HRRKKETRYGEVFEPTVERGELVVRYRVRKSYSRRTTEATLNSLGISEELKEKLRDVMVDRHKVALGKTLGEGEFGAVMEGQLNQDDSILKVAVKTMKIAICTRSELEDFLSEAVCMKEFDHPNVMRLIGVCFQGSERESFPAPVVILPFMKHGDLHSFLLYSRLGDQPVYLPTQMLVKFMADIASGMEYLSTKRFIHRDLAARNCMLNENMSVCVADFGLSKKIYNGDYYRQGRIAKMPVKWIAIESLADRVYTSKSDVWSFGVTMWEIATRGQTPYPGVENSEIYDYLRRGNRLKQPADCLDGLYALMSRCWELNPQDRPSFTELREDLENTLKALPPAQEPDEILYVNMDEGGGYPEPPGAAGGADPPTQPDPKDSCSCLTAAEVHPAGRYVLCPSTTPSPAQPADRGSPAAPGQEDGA

compound	IC50
O=C(Nc1ccc(F)cc1)C1(C(=O)Nc2ccc(Oc3ncnc4cc5c(nc34)CCCC5)cc2)CC1 [Compound 52]	0.1 to 1 µM
COc1cc2ncnc(Oc3ccc(NC(=O)C4(C(=O)Nc5ccc(F)cc5)CC4)cc3Cl)c2nc1OC [Compound 29]	0.01 to 0.1 µM
COc1cc2ncnc(Oc3ccc(NC(=O)C4(C(=O)Nc5ccc(F)cc5)CC4)cc3)c2cn1 [Compound 104]	0.01 to 0.1 µM
O=C(Nc1ccc(F)cc1)C1(C(=O)Nc2ccc(Oc3ncnc4ccncc34)cc2)CC1 [Compound 95]	0.1 to 1 µM
COc1cc2nccc(Oc3ccc(NC(=O)C4(C(=O)Nc5ccc(F)cc5)CC4)cc3)c2nc1OC [Compound 139]	≤ 0.01 µM
COc1cc2ncnc(Oc3ccc(NC(=O)C4(C(=O)Nc5ccc(F)cc5)CC4)cc3)c2cc1C(=O)NC[C@H]1CCCN1C(=O)OC(C)(C)C [Compound 119]	0.01 to 0.1 µM
COc1cc2ncnc(Oc3ccc(NC(=O)C4(C(=O)Nc5ccc(F)cc5)CC4)cc3)c2cc1C(=O)NC1CC1 [Compound 116]	0.01 to 0.1 µM
COc1cc2nccc(Oc3ccc(NC(=O)C4(C(=O)Nc5ccc(F)cc5)CC4)cc3F)c2nc1OC [Compound 140]	≤ 0.01 µM
O=C(Nc1ccc(F)cc1)C1(C(=O)Nc2ccc(Oc3ncnc4cc(Cl)cnc34)cc2)CC1 [Compound 12]	> 1 µM
COc1cc2ncnc(Oc3ccc(NC(=O)C4(C(=O)Nc5ccc(F)cc5)CC4)cc3)c2cc1C(=O)NC[C@@H]1CCCN1 [Compound 122]	≤ 0.01 µM

Q: IC50 lookup needed for COc1cc2c(Oc3ccc(NC(=O)C4(C(=O)Nc5ccc(F)cc5)CC4)cc3)ncnc2cn1 [Compound 91] , thanks.
A: 0.1 to 1 µM

Q: IC50 lookup needed for COc1nc2c(Oc3ccc(NC(=O)C4(C(=O)Nc5ccc(F)cc5)CC4)cc3Cl)ncnc2cc1OCCCN1CCOCC1 [Compound 66] , thanks.
A: ≤ 0.01 µM

Recorded values, source patent US11708367B2.
